# Measurement target: Ci-GlyR (Ciona intestinalis, UniProt D2KU21)
# Construct: single subunit expressed alone; no tag stated; cDNA from hatched larvae
# Sequence (D2KU21 25-491): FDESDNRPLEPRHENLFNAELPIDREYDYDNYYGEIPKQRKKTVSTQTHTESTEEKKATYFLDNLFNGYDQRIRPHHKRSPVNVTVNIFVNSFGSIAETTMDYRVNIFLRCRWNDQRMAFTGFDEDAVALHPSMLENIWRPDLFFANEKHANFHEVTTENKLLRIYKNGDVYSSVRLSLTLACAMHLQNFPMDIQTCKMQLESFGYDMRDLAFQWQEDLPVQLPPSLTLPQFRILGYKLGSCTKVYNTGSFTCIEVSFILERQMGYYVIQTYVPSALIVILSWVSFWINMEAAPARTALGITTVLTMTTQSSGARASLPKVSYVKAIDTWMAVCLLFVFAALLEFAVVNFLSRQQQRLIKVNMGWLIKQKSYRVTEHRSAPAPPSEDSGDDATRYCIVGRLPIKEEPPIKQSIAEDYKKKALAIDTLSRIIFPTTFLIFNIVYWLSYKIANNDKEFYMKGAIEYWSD
# Measurement description: two-electrode voltage clamp, Xenopus oocytes
pEC50: −log10 of the molar value.
Observation type: pEC50

Record `NCC(=O)O` , field pEC50: ~3.12
